// reported log2 fold change of degron read counts per item
Target: T1, CRBN, Q96SW2;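 also: pooled lentiviral library of zinc finger degron-EGFP fusions in mCherry-positive Jurkat cells, FACS-sorted after compound exposure, with degron abundance counted by next-generation sequencing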
T1 chain: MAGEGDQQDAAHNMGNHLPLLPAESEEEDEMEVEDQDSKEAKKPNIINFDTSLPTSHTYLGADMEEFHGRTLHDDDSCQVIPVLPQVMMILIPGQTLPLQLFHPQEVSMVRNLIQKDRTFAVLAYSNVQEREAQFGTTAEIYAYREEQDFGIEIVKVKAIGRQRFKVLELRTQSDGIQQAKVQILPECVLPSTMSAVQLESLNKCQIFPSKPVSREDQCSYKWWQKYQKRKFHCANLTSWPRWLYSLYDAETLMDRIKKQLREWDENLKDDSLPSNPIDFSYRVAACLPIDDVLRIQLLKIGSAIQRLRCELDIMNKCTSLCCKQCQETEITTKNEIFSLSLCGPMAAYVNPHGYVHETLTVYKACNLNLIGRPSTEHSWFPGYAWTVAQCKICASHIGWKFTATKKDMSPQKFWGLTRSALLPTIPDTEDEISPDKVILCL
Test: log2 fold change of degron read counts, EGFP-low vs EGFP+ sorted cells (limma voom), compound-induced degradation; higher = more compound-induced degradation of the degron-EGFP fusion; degrons are variants of IKZF1/3 zinc finger 2; compound dose not given here
Settings: Jurkat; 18 h; compound: compound 19 (5-tert-butyl-thalidomide)
Whole data set: some 8,300 sequences, median “log2 fold change of degron read counts, EGFP-low vs EGFP+ sorted cells (limma voom), compound-induced degradation” near -1.1, cut for the highest 2% near 3.2. The full list was thinned out, with the highest values kept by preference.
Just the number, please.

# Sequence String, log2 fold change of degron read counts
measured = [
    ("FYCEICGAPFTQKGNLLRHIKL [46F_47Y_49E_50I_52G_53A_54P_55F_67L_, Q9UKT9]", 3.86),
    ("FKCSVCGHPFTQKGNLLRHIKL [46F_47K_49S_50V_52G_53H_54P_55F_67L_, Q9UKT9]", -2.15),
    ("FMCEICGADFTQKGNLLRHIKL [46F_47M_49E_50I_52G_53A_54D_55F_67L_, Q9UKT9]", -1.98),
    ("FCCPICGRFFTQKGNLLRHIKL [46F_47C_49P_50I_52G_53R_54F_55F_67L_, Q9UKT9]", -0.555),
    ("FHCNQCGHYFTQKGNLLRHIKL [46F_47H_49N_50Q_52G_53H_54Y_55F_67L_, Q9UKT9]", -2.17),
]

// log2 fold change of degron read counts lookup, key: FFCEICGHPFTQKGNLLRHIKL [46F_47F_49E_50I_52G_53H_54P_55F_67L_, Q9UKT9]
0.211

// log2 fold change of degron read counts lookup, key: LHCPICGFDCTQKGNLLRHIKL [46L_47H_49P_50I_52G_53F_54D_55C_67L_, Q9UKT9]
-1.62

The values you see were collected from the supplement of paper PMC12645437.
